Target: T1, rat angiotensin 2 type 1 receptor (rat, UniProt P25095 1-359)
T1 sequence (looked up): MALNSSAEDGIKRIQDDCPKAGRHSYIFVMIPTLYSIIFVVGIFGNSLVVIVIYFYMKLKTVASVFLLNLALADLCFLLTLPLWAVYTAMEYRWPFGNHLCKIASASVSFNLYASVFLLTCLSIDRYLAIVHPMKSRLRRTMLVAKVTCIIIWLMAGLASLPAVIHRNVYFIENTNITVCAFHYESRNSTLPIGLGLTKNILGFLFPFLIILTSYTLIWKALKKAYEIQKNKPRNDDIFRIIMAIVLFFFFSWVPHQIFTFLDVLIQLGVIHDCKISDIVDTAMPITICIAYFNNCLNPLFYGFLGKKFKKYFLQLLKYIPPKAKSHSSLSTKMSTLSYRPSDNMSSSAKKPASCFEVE
Assay: cell-based or functional assay
Where no end group is shown, it is not given here. [ ]: non-standard residue; d: D form. Ac6c = NC1(C(=O)O)CCCCC1; Sar = CNCC(=O)O
assayEndpoint: beta-arrestin2 assay EC50

[Sar]RVYXHPT (not fully specified (residue 5); printed as Sar-Arg-Val-Tyr-AA01-His-Pro-Thr) [SEQ ID NO: 40 (Sar-Arg-Val-Tyr-AA01-His-Pro-Thr)]    > 3.2 nM
[Sar]RVY[Ac6c]HPP [SEQ ID NO: 39 (Sar-Arg-Val-Tyr-cyHex-His-Pro-Pro)]    > 3.2 nM

In plain terms, [Sar]RVYPHPF [SEQ ID NO: 10 (Sar-Arg-Val-Tyr-Pro-His-Pro-Phe)] has a documented beta-arrestin2 assay EC50 of 3.2 nM
